assay: Oral bioavailability in dog; assay type: ADME, organism-based, Canis lupus familiaris; conditions: in vivo

{"Compound": "CCC(Cc1ccccc1)c1cc(O)c(C(CC)c2ccccc2)c(=O)o1 (stereo unspecified)", "bioavailability / %": 45}

----------
assay: Tested for pharmacokinetic parameter to calculate the steady-state volume of distributio at a dosage of 12 mg/kg in rat; format: ADME, organism-based; parameters: dose 12 mg/kg; settings: in vivo, read-out: Vss

{"Compound": "CCC(Cc1ccccc1)c1cc(O)c(C(CC)c2ccccc2)c(=O)o1 (stereo unspecified)", "Vd, L/kg": 0.1}

----------
test: Tested for pharmacokinetic parameter to calculate the half life period at a dosage of 12 mg/kg in rat; format: ADME, organism-based; set-up: dose 12 mg/kg; details: in vivo

{"Compound": "CCC(Cc1ccccc1)c1cc(O)c(C(CC)c2ccccc2)c(=O)o1 (stereo unspecified)", "half-life [h]": 4}

----------
assay: Tested for antiviral activity against clinical isolates such as AZT resistant strain; format: functional; details: read-out: ED50 (the source's name)
Endpoint: EC50 (µM)

{"Molecule": "CCC(Cc1ccccc1)c1cc(O)c(C(CC)c2ccccc2)c(=O)o1 (stereo unspecified)", "Uom": "µM", "Value Reported": 4}

----------
tested on: H9; assay: Tested for the antiviral activity against HIV-1 IIIB-infected H9 cells; assay type: functional; settings: Homo sapiens, read-out: ED50 (the source's name)
pEC50: −log10 of the molar value.

{"Compound": "CCC(Cc1ccccc1)c1cc(O)c(C(CC)c2ccccc2)c(=O)o1 (stereo unspecified)", "Tested On": "H9", "pEC50": 5.52}

----------
experiment: Tested for pharmacokinetic parameter to calculate the total body clearance at a dosage of 12 mg/kg in rat; assay type: ADME, organism-based; design: dose 12 mg/kg; conditions: in vivo, read-out: ClT

{"Compound": "CCC(Cc1ccccc1)c1cc(O)c(C(CC)c2ccccc2)c(=O)o1 (stereo unspecified)", "clearance, mL/min/kg": 0.8}
